Data origin: ChEMBL document CHEMBL5614400

test system: Madurella mycetomatis; assay: Antifungal activity against Madurella mycetomatis I11 by XTT assay; assay type: functional
Measurement Label: MIC (µM)

Worked cases, MIC given:
CN1CCN(c2cc(-c3cccc4[nH]ccc34)c3nc(-c4ccc(F)cc4)cn3n2)CC1 = 8
CN1CCN(c2cc(-c3cnc(N4CCN(C)CC4)nc3)c3nc(-c4ccccc4)cn3n2)CC1 = 8
CN1CCN(c2cc(-c3cnc(N4CCN(C)CC4)nc3)c3nc(-c4cccc(F)c4)cn3n2)CC1 = 4

A. CCC(C)n1ncn(-c2ccc(N3CCN(c4ccc(OCC5COC(Cn6cncn6)(c6ccc(Cl)cc6Cl)O5)cc4)CC3)cc2)c1=O (configuration not stated)
B. CN1CCN(c2cc(-c3ccsc3)c3nc(-c4ccccc4F)cn3n2)CC1
C. CN1CCN(c2cc(-c3ccc4[nH]ccc4c3)c3nc(-c4ccc(F)cc4)cn3n2)CC1
(Q) // ranking: key=MIC, reverse=True Sort the labels as requested; that list is your answer.
(A) B, C, A
(B: 8 µM, C: 4 µM, A: 0.5 µM)

1. CN1CCN(c2cc(-c3cnc(N4CCN(C)CC4)nc3)c3nc(-c4ccccc4F)cn3n2)CC1
2. CN1CCN(c2cc(-c3cccc4[nH]ccc34)c3nc(-c4cccc(F)c4)cn3n2)CC1
(Q) Between 1 and 2 , which one shows the smaller MIC number? Answer by stating the label of the chosen item.
(A) 1

a. OCCN1CCN(c2cc(-c3ccsc3)c3nc(-c4ccccc4F)cn3n2)CC1
b. CN1CCN(c2cc(-c3cnc(N4CCN(C)CC4)nc3)c3nc(-c4ccc(F)cc4)cn3n2)CC1
(Q) Between a and b , which one shows the smaller MIC number? Answer by stating the label of the chosen item.
(A) a

a. CN1CCN(c2cc(-c3ccsc3)c3nc(-c4ccccc4)cn3n2)CC1
b. CN1CCN(c2cc(-c3ccsc3)c3nc(-c4cccc(F)c4)cn3n2)CC1
(Q) Between a and b , which one shows the smaller MIC number? Answer by stating the label of the chosen item.
(A) a
(a: 4 µM, b: 8 µM)

P. OCCN1CCN(c2cc(-c3ccsc3)c3nc(-c4cccc(F)c4)cn3n2)CC1
Q. OCCN1CCN(c2cc(-c3ccsc3)c3nc(-c4ccccc4)cn3n2)CC1
(Q) Between P and Q , which one shows the smaller MIC number? Answer by stating the label of the chosen item.
(A) P

---

experiment: Selectivity index, ratio of IC50 for mouse NIH3T3 cells to IC50 for Madurella mycetomatis MM55; type: toxicity; settings: read-out: Ratio IC50
Measurement Label: selectivity ratio
Provide a numeric answer; units are not to be included.

The compound listed as `CN1CCN(c2cc(-c3cnc(N4CCN(C)CC4)nc3)c3nc(-c4ccccc4)cn3n2)CC1` shows selectivity ratio equal to 16

The compound listed as `OCCN1CCN(c2cc(-c3ccsc3)c3nc(-c4ccccc4)cn3n2)CC1` shows selectivity ratio equal to 3.4

The compound listed as `OCCN1CCN(c2cc(-c3ccsc3)c3nc(-c4cccc(F)c4)cn3n2)CC1` shows selectivity ratio equal to 8.2

The compound listed as CCC(C)n1ncn(-c2ccc(N3CCN(c4ccc(OCC5COC(Cn6cncn6)(c6ccc(Cl)cc6Cl)O5)cc4)CC3)cc2)c1=O (centres undefined) shows selectivity ratio equal to 1.4

---

test system: Madurella mycetomatis; assay: Antifungal activity against Madurella mycetomatis CBS247.48 by XTT assay; type: functional
Measurement Label: MIC (µM)

Worked cases, MIC given:
CN1CCN(c2cc(-c3cnc(N4CCN(C)CC4)nc3)c3nc(-c4cccc(F)c4)cn3n2)CC1 = 2
OCCN1CCN(c2cc(-c3ccsc3)c3nc(-c4cccc(F)c4)cn3n2)CC1 = 4
OCCN1CCN(c2cc(-c3ccsc3)c3nc(-c4ccccc4)cn3n2)CC1 = 8

A. OCCN1CCN(c2cc(-c3ccsc3)c3nc(-c4ccccc4F)cn3n2)CC1
B. CCC(C)n1ncn(-c2ccc(N3CCN(c4ccc(OCC5COC(Cn6cncn6)(c6ccc(Cl)cc6Cl)O5)cc4)CC3)cc2)c1=O (centres undefined) [ITRACONAZOLE]
C. CN1CCN(c2cc(-c3cnc(N4CCN(C)CC4)nc3)c3nc(-c4ccc(F)cc4)cn3n2)CC1
(Q) // ranking: key=MIC, reverse=True Sort the labels as requested; that list is your answer.
(A) A, C, B
